Molecular target: Claudin 18.2 (CLDN18.2), expressed on CHOS-CLDN 18.2 / HEK293-CLDN 18.2 / HCC827-CLDN 18.2 cells (human, UniProt P56856-2 1-261)
Experiment: cell-based or functional assay
assayEndpoint: Killing percentage, ADCC (PBMC, HEK293-CLDN18.2 cells), 0.0128 µg/ml (%)
Write the number in % without appending the unit.

See these solved cases before continuing.
[
  {
    "binder": "QP14371433 (antibody, human IgG1, kappa, V domains shown, Humanized from QP190191; also called QP14331437) VH: EVQLVESGGGLVKPGGSLRLSCAASGFTFSNYAMSWVRQAPGKGLEWVASIISGGRTYYLDSEKGRFTISRDNAKNSLYLQMNSLRAEDTAVYYCTRIYYGNSFDYWGQGTLVTVSS VL: DIVMTQSPDSLAVSLGERATINCKSSQSLLNSGNQKNYLTWYQQKPGQPPKLLIYWASTRESGVPDRFSGSGSGTDFTLTISSLQAEDVAVYYCQNDYSYPFTFGQGTKLEIKR",
    "measuredNumber": 31.3
  },
  {
    "binder": "QP14631461 (antibody, human IgG1, kappa, V domains shown, also called QP14611463) VH: QVQLVQSGAEVKKPGASVKVSCKASGYTFTSYIMHWVRQAPGQGLEWMGYINPYNDGTKYNEKFKGRVTMTRDTSTSTVYMELSSLRSEDTAVYYCARLGFTTRNAMDYWGQGTLVTVSS VL: DIVMTQSPDSLAVSLGERATINCKSSQSLLNSGNQKNYLAWYQQKPGQPPKLLIYGASTRESGVPDRFTGSGSGTDFTLTISSLQAEDVAVYYCQNDHSYPFTFGQGTKLEIKR",
    "measuredNumber": 23.4
  },
  {
    "binder": "QP14451440 (antibody, human IgG1, kappa, V domains shown, Humanized from QP192193; also called QP14401445) VH: QVQLVQSGAEVKKPGASVKVSCKASGYAFSSYWMNWVRQAPGQGLEWIGQIYPGNGDTTYNGKFKGRVTMTADKSTSTVYMELSSLRSEDTAVYFCARFVKGNAMDYWGQGTLVTVSS VL: DIVMTQSPDSLAVSLGERATISCKSSQSLLNSGNQKNYLTWYQQKPGQPPKLLIYWASTRESGVPDRFSGSGSGTDFTLTISSLQAEDVAVYYCQNAYSYPFTFGQGTKLEIKR",
    "measuredNumber": 28.5
  }
]

Indicate its recorded Killing percentage, ADCC (PBMC, HEK293-CLDN18.2 cells), 0.0128 µg/ml; the binder in question is QP024025 (antibody, human IgG1, V domains shown, also called IMAB362; 175D10(IMAB362)) VH: QVQLQQPGAELVRPGASVKLSCKASGYTFTSYWINWVKQRPGQGLEWIGNIYPSDSYTNYNQKFKDKATLTVDKSSSTAYMQLSSPTSEDSAVYYCTRSWRGNSFDYWGQGTTLTVSS VL: DIVMTQSPSSLTVTAGEKVTMSCKSSQSLLNSGNQKNYLTWYQQKPGQPPKLLIYWASTRESGVPDRFTGSGSGTDFTLTISSVQAEDLAVYYCQNDYSYPFTFGSGTKLEIK
11
